Measured inhibition at 10 µM values are reported for all entries that follow.
- targetOrTestSystem: p38 (Homo sapiens, UniProt Q16539)
- Construct: made in house
- Sequence (Q16539 whole entry): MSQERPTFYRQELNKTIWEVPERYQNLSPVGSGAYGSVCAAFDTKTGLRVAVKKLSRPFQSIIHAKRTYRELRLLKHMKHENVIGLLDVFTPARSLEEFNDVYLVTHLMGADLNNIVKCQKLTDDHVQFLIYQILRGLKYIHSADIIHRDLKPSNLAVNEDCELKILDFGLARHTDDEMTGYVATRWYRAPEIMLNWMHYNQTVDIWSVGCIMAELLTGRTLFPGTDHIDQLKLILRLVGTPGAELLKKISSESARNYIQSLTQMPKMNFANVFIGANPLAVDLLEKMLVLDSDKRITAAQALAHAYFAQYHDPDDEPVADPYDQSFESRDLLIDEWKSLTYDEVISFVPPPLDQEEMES
- assayComment: Protein Kinase Assay (33P incorporation from γ-[33P]ATP into GST-ATF-2 substrate)
- Assay type: biochemical
- testConditions: compound at 10 μM

Example compounds with recorded inhibition at 10 µM:
* CC(C)(C)c1cc(C(=O)N2CCS(=O)(=O)CC2)c(NC(=O)Nc2ccc(O)c3ccccc23)s1 | 76 to 100%
* CC(C)(C)c1cc(NC(=O)Nc2ccc(Cl)cc2)n(CC(=O)N2CCS(=O)(=O)CC2)n1 | 51 to 75%
* CC(C)(C)c1cc(C(=O)N2CCOCC2)c(NC(=O)Nc2cccc3ccccc23)s1 | 26 to 50%

Per the records, this compound ( "CC(C)(C)c1cc(NC(=O)Nc2ccc3ccccc3c2)n(C(=O)N2CCS(=O)(=O)CC2)n1" ) has inhibition at 10 µM equal to 26 to 50%

* * *

Measured inhibition at 10 µM values are reported for all entries that follow.
- targetOrTestSystem: p38 (Homo sapiens)
- Construct: made in house
- assayComment: Protein Kinase Assay (33P incorporation from γ-[33P]ATP into GST-ATF-2 substrate)
- Assay type: biochemical
- testConditions: compound at 10 μM

Example molecules with recorded inhibition at 10 µM:
• CC(C)(C)c1cc(NC(=O)Nc2ccc(Cl)cc2)n(C(=O)N2CCS(=O)(=O)CC2)n1 = 76 to 100%
• CC(C)(C)c1cc(C(=O)N2CCS(=O)(=O)CC2)c(NC(=O)Nc2cccc3ccccc23)s1 = 76 to 100%
• CC(C)(C)c1nc(C(=O)N2CCS(=O)(=O)CC2)c(NC(=O)Nc2cccc3ccccc23)s1 = 76 to 100%
• CC(C)(C)c1cc(C(=O)N2CCSCC2)c(NC(=O)Nc2cccc3ccccc23)s1 = 51 to 75%
• CC(C)(C)c1cc(C(=O)N2CCNC(=O)C2)c(NC(=O)Nc2cccc3ccccc23)s1 = 51 to 75%
• CC(C)(C)c1cc(NC(=O)Nc2cccc3ccccc23)n(C(=O)N2CCS(=O)(=O)CC2)n1 = 76 to 100%
• CC(C)(C)c1cc(CN2CCS(=O)(=O)CC2)c(NC(=O)Nc2cccc3ccccc23)s1 = 76 to 100%

Now take the following molecule into account.
Summary: "CC(C)(C)c1cc(NC(=O)Nc2ccc3ccccc3c2)c(CN2CCS(=O)(=O)CC2)s1" , p38 (Homo sapiens), inhibition at 10 µM = 26 to 50%

* * *

- targetOrTestSystem: p38 (Homo sapiens)
- Construct: made in house
- assayComment: Protein Kinase Assay (33P incorporation from γ-[33P]ATP into GST-ATF-2 substrate)
- Type: biochemical
- testConditions: compound at 10 μM
Measured inhibition at 10 µM values are reported for all entries that follow.

Example compounds with recorded inhibition at 10 µM:
- CC(C)(C)c1nc(C(=O)N2CCS(=O)(=O)CC2)c(NC(=O)Nc2ccc3ccccc3c2)s1: 51 to 75%
- CC(C)(C)c1cc(CN2CCS(=O)(=O)CC2)c(NC(=O)Nc2ccc(Cl)cc2)s1: 76 to 100%
- CC(C)(C)c1cc(C(=O)N2CCS(=O)(=O)CC2)c(NC(=O)Nc2ccc3ccccc3c2)s1: 76 to 100%
- CC(C)(C)c1cc(C(=O)N2CCS(=O)(=O)CC2)c(NC(=O)Nc2ccnc3ccccc23)s1: 51 to 75%
- CC(C)(C)c1cc(C(=O)N2CC[S+]([O-])CC2)c(NC(=O)Nc2cccc3ccccc23)s1: 26 to 50%

Per the records, this compound ( "CC(C)(C)c1cc(CN2CCS(=O)(=O)CC2)c(NC(=O)Nc2ccc3ccccc3c2)s1" ) has inhibition at 10 µM equal to 76 to 100%

Per the records, this compound ( "CC(C)(C)c1cc(C(=O)N2CCS(=O)(=O)CC2)c(NC(=O)Nc2ccc3c(c2)NC(=O)CC3)s1" ) has inhibition at 10 µM equal to 0 to 25%

Per the records, this compound ( "CC(C)(C)c1cc(NC(=O)Nc2ccc3ccccc3c2)c(C(=O)N2CCS(=O)(=O)CC2)s1" ) has inhibition at 10 µM equal to 76 to 100%
